Cited source for all entries: paper PMC6152131

Assay: Plasma concentration after a single oral dose of the anxiolytic fraction (HPLC)
Type: in vivo, ICR mice
Conditions: mouse, plasma; 30 min after single oral dose of 200 mg/kg of the anxiolytic fraction; ICR mice, n = 10
Protocol: Eleven groups of ten animals each were randomly formed. All animals were orally administered with 200 mg/kg of the active fraction. Animals were anaesthetized with ether, and blood samples were obtained from the retroorbital sinus with a heparinized capillary, each group was examined at different times (0, 5, 10, 15, 30, 60, 120, 240, 480, 720, and 1440 min) after the active fraction was administered. […] Then the plasma samples were frozen and lyophilized. […]
For each of the molecules below, state its concentration at 30 min.
Answers are plain numbers, in ng/mL.

MOLECULE	OBS_VALUE
O=C(O)Cc1ccc(O)cc1 [p-HPAA, para-hydroxyphenylacetic acid]	5380
O=C(O)Cc1cccc(O)c1 [m-HPAA, meta-hydroxyphenylacetic acid]	4520

# input Any idea what its concentration at 30 min is? The molecule is O=C(O)Cc1ccc(O)c(O)c1 [DOPAC, 3,4-dihydroxyphenylacetic acid]
# output 7170

* * *

assay: Pharmacokinetic analysis, two-compartment model (PKSolver); assay type: in vivo, ICR mice; conditions: mouse; oral 200 mg/kg anxiolytic fraction, ICR mice plasma, two-compartment model; read-out: k10 (apparent first-order elimination rate constant from the central compartment) (converted)
For each of the compounds below, state its k el.
Answers are plain numbers, in s⁻¹.

COMPOUND	k el / s⁻¹
O=C(O)Cc1ccc(O)cc1 [p-HPAA, para-hydroxyphenylacetic acid]	1e-05
O=C(O)Cc1ccc(O)c(O)c1 [DOPAC, 3,4-dihydroxyphenylacetic acid]	5.3e-07

# evaluate next
# input Any idea what its k el is? The compound is O=C(O)Cc1cccc(O)c1 [m-HPAA, meta-hydroxyphenylacetic acid]
# output 1.5e-05

* * *

assay: Stability of flavonoids and biotransformation products in mouse plasma under different handling conditions; assay type: in vitro ADME, mice; conditions: room temperature (25 °C), 8 h; low nominal conc. (1.75; 11.02; 1.12; 1.95 µg/mL); n = 6
MEASURED_QUANTITY: Observed Conc. 8 h (µg/mL)
Numbers only, in µg/mL.

Completed entries (count: 5):
MOLECULE	MEASURED_QUANTITY	OBS_VALUE
O=C(O)Cc1cccc(O)c1 [m-HPAA, meta-hydroxyphenylacetic acid]	Observed Conc. 8 h	1.91
O=c1c(O[C@@H]2O[C@H](CO)[C@@H](O)[C@H](O)[C@H]2O)c(-c2ccc(O)c(O)c2)oc2cc(O)cc(O)c12 [Quercetin glucoside, quercetin glucoside]	Observed Conc. 8 h	10.84
O=C(/C=C/c1ccc(O)cc1)OC[C@H]1O[C@@H](Oc2c(-c3ccc(O)cc3)oc3cc(O)cc(O)c3c2=O)[C@H](O)[C@@H](O)[C@@H]1O [Tiliroside, tiliroside]	Observed Conc. 8 h	10.33
C[C@@H]1O[C@@H](OC[C@H]2O[C@@H](Oc3c(-c4ccc(O)c(O)c4)oc4cc(O)cc(O)c4c3=O)[C@H](O)[C@@H](O)[C@@H]2O)[C@H](O)[C@H](O)[C@H]1O	Observed Conc. 8 h	1.65
C[C@@H]1O[C@@H](Oc2c(-c3ccc(O)c(O)c3)oc3cc(O)cc(O)c3c2=O)[C@H](O)[C@H](O)[C@H]1O	Observed Conc. 8 h	11.56

Would you mind listing Observed Conc. 8 h for each of the following molecules?
1. O=C(O)Cc1ccc(O)cc1 [p-HPAA, para-hydroxyphenylacetic acid]
2. O=c1c(O)c(-c2ccc(O)cc2)oc2cc(O)cc(O)c12
3. O=C(O)Cc1ccc(O)c(O)c1 [DOPAC, 3,4-dihydroxyphenylacetic acid]

# output
1.92
1.21
1.92

* * *

assay: Stability of flavonoids and biotransformation products in mouse plasma under different handling conditions; format: in vitro ADME, mice; details: room temperature (25 °C), 8 h; high nominal conc.
MEASURED_QUANTITY: Accuracy Bias 8 h (%)
One number for each entry, in %.

Completed entries (count: 4):
COMPOUND	OBS_VALUE
O=C(O)Cc1ccc(O)c(O)c1 [DOPAC, 3,4-dihydroxyphenylacetic acid]	0.25
C[C@@H]1O[C@@H](OC[C@H]2O[C@@H](Oc3c(-c4ccc(O)c(O)c4)oc4cc(O)cc(O)c4c3=O)[C@H](O)[C@@H](O)[C@@H]2O)[C@H](O)[C@H](O)[C@H]1O [Rutin, rutin]	−2.45
O=C(/C=C/c1ccc(O)cc1)OC[C@H]1O[C@@H](Oc2c(-c3ccc(O)cc3)oc3cc(O)cc(O)c3c2=O)[C@H](O)[C@@H](O)[C@@H]1O [Tiliroside, tiliroside]	−0.64
O=c1c(O[C@@H]2O[C@H](CO)[C@@H](O)[C@H](O)[C@H]2O)c(-c2ccc(O)c(O)c2)oc2cc(O)cc(O)c12 [Quercetin glucoside, quercetin glucoside]	4.28

Would you mind listing Accuracy Bias 8 h for each of the following compounds?
1. O=C(O)Cc1ccc(O)cc1 [p-HPAA, para-hydroxyphenylacetic acid]
2. O=c1c(O)c(-c2ccc(O)cc2)oc2cc(O)cc(O)c12 [Kaempferol, kaempferol]

# output
1. 1.26
2. −1.74

Would you mind listing Accuracy Bias 8 h for each of the following compounds?
1. O=C(O)Cc1cccc(O)c1 [m-HPAA, meta-hydroxyphenylacetic acid]
2. C[C@@H]1O[C@@H](Oc2c(-c3ccc(O)c(O)c3)oc3cc(O)cc(O)c3c2=O)[C@H](O)[C@H](O)[C@H]1O [Quercitrin, quercitrin]

# output
0.90
−1.33

* * *

For each of the molecules below, state its concentration at 240 min.
assay: Plasma concentration after a single oral dose of the anxiolytic fraction (HPLC); assay type: in vivo, ICR mice; conditions: mouse, plasma; 240 min after single oral dose of 200 mg/kg of the anxiolytic fraction; ICR mice, n = 10
One number for each entry, in ng/mL.

Completed entries (count: 2):
MOLECULE	concentration at 240 min [ng/mL]
O=C(O)Cc1cccc(O)c1 [m-HPAA, meta-hydroxyphenylacetic acid]	4110
O=C(O)Cc1ccc(O)cc1 [p-HPAA, para-hydroxyphenylacetic acid]	5150

# input Any idea what its concentration at 240 min is? The molecule is O=C(O)Cc1ccc(O)c(O)c1 [DOPAC, 3,4-dihydroxyphenylacetic acid]
# output 6260

* * *

For each of the molecules below, state its Accuracy Bias Long-term (−70°C; 1 month).
assay: Stability of flavonoids and biotransformation products in mouse plasma under different handling conditions; assay type: in vitro ADME, mice; conditions: storage stability; high nominal conc.
Give bare numbers, in %.

Completed entries (count: 3):
MOLECULE	MEASURED_QUANTITY	OBS_VALUE
O=c1c(O)c(-c2ccc(O)cc2)oc2cc(O)cc(O)c12	Accuracy Bias Long-term (−70°C; 1 month)	−2.47
O=C(O)Cc1cccc(O)c1 [m-HPAA, meta-hydroxyphenylacetic acid]	Accuracy Bias Long-term (−70°C; 1 month)	2.23
O=c1c(O[C@@H]2O[C@H](CO)[C@@H](O)[C@H](O)[C@H]2O)c(-c2ccc(O)c(O)c2)oc2cc(O)cc(O)c12 [Quercetin glucoside, quercetin glucoside]	Accuracy Bias Long-term (−70°C; 1 month)	−3.52

Would you mind listing Accuracy Bias Long-term (−70°C; 1 month) for each of the following molecules?
1. O=C(O)Cc1ccc(O)cc1 [p-HPAA, para-hydroxyphenylacetic acid]
2. O=C(O)Cc1ccc(O)c(O)c1 [DOPAC, 3,4-dihydroxyphenylacetic acid]
3. C[C@@H]1O[C@@H](OC[C@H]2O[C@@H](Oc3c(-c4ccc(O)c(O)c4)oc4cc(O)cc(O)c4c3=O)[C@H](O)[C@@H](O)[C@@H]2O)[C@H](O)[C@H](O)[C@H]1O
4. O=C(/C=C/c1ccc(O)cc1)OC[C@H]1O[C@@H](Oc2c(-c3ccc(O)cc3)oc3cc(O)cc(O)c3c2=O)[C@H](O)[C@@H](O)[C@@H]1O [Tiliroside, tiliroside]

# output
[0.85, 2.11, "−1.56", 0.24]

* * *

For each of the compounds below, state its concentration at 720 min.
experiment: Plasma concentration after a single oral dose of the anxiolytic fraction (HPLC); format: in vivo, ICR mice; settings: mouse, plasma; 720 min after single oral dose of 200 mg/kg of the anxiolytic fraction; ICR mice, n = 10
One number for each entry, in ng/mL.

Completed entries (count: 2):
COMPOUND	concentration at 720 min (ng/mL)
O=C(O)Cc1ccc(O)cc1 [p-HPAA, para-hydroxyphenylacetic acid]	4990
O=C(O)Cc1cccc(O)c1 [m-HPAA, meta-hydroxyphenylacetic acid]	3940

# evaluate next
# input Any idea what its concentration at 720 min is? The compound is O=C(O)Cc1ccc(O)c(O)c1 [DOPAC, 3,4-dihydroxyphenylacetic acid]
# output 6010

* * *

assay: Stability of flavonoids and biotransformation products in mouse plasma under different handling conditions; assay type: in vitro ADME, mice; settings: room temperature (25 °C), 24 h; medium nominal conc.
MEASURED_QUANTITY: Accuracy Bias 24 h (%)
One number for each entry, in %.

Completed entries (count: 3):
COMPOUND	Accuracy Bias 24 h [%]
C[C@@H]1O[C@@H](OC[C@H]2O[C@@H](Oc3c(-c4ccc(O)c(O)c4)oc4cc(O)cc(O)c4c3=O)[C@H](O)[C@@H](O)[C@@H]2O)[C@H](O)[C@H](O)[C@H]1O	2.93
O=c1c(O)c(-c2ccc(O)cc2)oc2cc(O)cc(O)c12	−8.12
O=c1c(O[C@@H]2O[C@H](CO)[C@@H](O)[C@H](O)[C@H]2O)c(-c2ccc(O)c(O)c2)oc2cc(O)cc(O)c12 [Quercetin glucoside, quercetin glucoside]	7.83

Would you mind listing Accuracy Bias 24 h for each of the following compounds?
1. O=C(/C=C/c1ccc(O)cc1)OC[C@H]1O[C@@H](Oc2c(-c3ccc(O)cc3)oc3cc(O)cc(O)c3c2=O)[C@H](O)[C@@H](O)[C@@H]1O [Tiliroside, tiliroside]
2. O=C(O)Cc1ccc(O)c(O)c1 [DOPAC, 3,4-dihydroxyphenylacetic acid]
3. C[C@@H]1O[C@@H](Oc2c(-c3ccc(O)c(O)c3)oc3cc(O)cc(O)c3c2=O)[C@H](O)[C@H](O)[C@H]1O
4. O=C(O)Cc1ccc(O)cc1 [p-HPAA, para-hydroxyphenylacetic acid]
5. O=C(O)Cc1cccc(O)c1 [m-HPAA, meta-hydroxyphenylacetic acid]

# output
[7.14, 0.02, "−4.15", 1.01, 0.09]
